Molecular target: Mu-type opioid receptor (Rattus norvegicus)
Experiment: Agonist activity at rat mu opioid receptor expressed in rat C6 glioma cell membranes assessed as stimulation of [35S]GTPgammaS binding measured after 1 hr relative to DAMGO
Format: functional

Compound Structure: CC(=O)N1CC[C@@H](NC(=O)[C@@H](N)Cc2c(C)cc(O)cc2C)c2cc(Cc3ccc4c(c3)OCCO4)ccc21.O=C(O)C(F)(F)F
Efficacy: 45%
--
Compound Structure: Cc1cc(O)cc(C)c1C[C@H](N)C(=O)N[C@@H]1CCN(C(=O)c2ccccc2)c2ccc(Cc3ccc4ccccc4c3)cc21.O=C(O)C(F)(F)F
Efficacy: 57%
--
Compound Structure: CC(=O)N1CC[C@@H](NC(=O)[C@@H](N)Cc2c(C)cc(O)cc2C)c2cc(Cc3cnc4ccccc4c3)ccc21.O=C(O)C(F)(F)F
Efficacy: 76%
--
Compound Structure: Cc1cc(O)cc(C)c1C[C@H](N)C(=O)N[C@@H]1CCNc2ccc(Cc3cnc4ccccc4c3)cc21.O=C(O)C(F)(F)F
Efficacy: 84%
--
Compound Structure: Cc1cc(O)cc(C)c1C[C@H](N)C(=O)N[C@@H]1CCNc2ccc(Cc3cc4ccccc4o3)cc21.O=C(O)C(F)(F)F
Efficacy: 98%
--
Compound Structure: Cc1cc(O)cc(C)c1C[C@H](N)C(=O)N[C@@H]1CCN(S(C)(=O)=O)c2ccc(Cc3ccc4ccccc4c3)cc21.O=C(O)C(F)(F)F
Efficacy: 102%
--
Compound Structure: Cc1cc(O)cc(C)c1C[C@H](N)C(=O)N[C@@H]1CCN(S(C)(=O)=O)c2ccc(Cc3ccc4c(c3)OCCO4)cc21.O=C(O)C(F)(F)F
Efficacy: 47%
--
Compound Structure: CC(=O)N1CC[C@@H](NC(=O)[C@@H](N)Cc2c(C)cc(O)cc2C)c2cc(Cc3cc4ccccc4o3)ccc21
Efficacy: 86%
--
Compound Structure: Cc1cc(O)cc(C)c1C[C@H](N)C(=O)N[C@@H]1CCN(S(C)(=O)=O)c2ccc(Cc3cc4ccccc4o3)cc21.O=C(O)C(F)(F)F
Efficacy: 102%
